Documented response across a set of molecules
assay: yeast V-ATPase proton transport modulators, S. cerevisiae, pHLuorin, HTS validation (AID 504600);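 further: plate controls were DMSO for no effect and reference compound for full effect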; conditions: S. cerevisiae pHLuorin cytosolic pH, at 10 µM, active compounds read high
Expressed in %, but write only the number.

Example entries begin here.
- MOLECULE: "COc1ccc(CCN=C(N)C(C)c2ccccc2)cc1OC (stereo not drawn)"
  UNIT_TEXT: "%"
  response: -1.3
- MOLECULE: "Cc1ccc2c(c1)C(O)(c1c(C)[nH]c3ccccc13)C(=O)N2 (stereo not drawn)"
  UNIT_TEXT: "%"
  response: -5.66

Turning to the following molecule.
// fetch response given entry Oc1[nH]c2ccccc2c1N=Nc1ccccc1 -2.64
